Ref: PubChem BioAssay (NCI)

- experimentalDetails: NCI Yeast Anticancer Drug Screen. Data for the sgs1 mgt1 strain (AID 161);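 further: 0% = growth of cultures given vehicle only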
- statedConditions: S. cerevisiae sgs1 mgt1 strain, at 50.0 µM, active compounds read high
About 79,000 compounds went through this panel and 15% of them were active in at least one assay; those are over-represented in the sample as a whole.
# growth inhibition >= 90% gives yes, anything below gives no

A selection of reference data follows.
| molecule | assignedLabel |
| --- | --- |
| CC1(C)N=C(N)N=C(N)N1c1cccc(CCCCC(=O)CCl)c1 | yes |
| CCc1ccc(-c2ccccc2)cc1 | no |
| CC(=O)c1c(CO[N+](=O)[O-])n([O-])c2ccccc2[n+]1=O | no |
| O=C(Nc1ccc(F)c([N+](=O)[O-])c1)NC(Cc1ccccc1)c1ccccc1 (configuration not stated) | yes |
| COC/C(Br)=C\SC#N (tested in a mixture with another compound) | yes |

growth inhibition >= 90% for CCc1cc2c([nH]c3ccccc32)c(C)c1CCN(C)C ?
no

growth inhibition >= 90% for CC(=O)n1nc2c(c1CC(C)C)C(=O)C(Nc1ccccc1)=CC2=O ?
no

growth inhibition >= 90% for CC1C=C(COC(=O)Nc2ccccc2)ON1c1ccccc1 (configuration not stated) ?
yes

growth inhibition >= 90% for O=C(Nc1ccccc1)c1cc(Cl)ccc1O ?
no

growth inhibition >= 90% for COc1cccc(C2c3cc4c(cc3OC(Nc3ccccc3)C2C)OCO4)c1O (configuration not stated) ?
yes

growth inhibition >= 90% for NC(=O)NC(CC(=O)O)C(=O)O (configuration not stated) ?
no

growth inhibition >= 90% for CC(=O)Nc1ccc(/S(=N\S(=O)(=O)c2ccc(C)cc2)c2ccc(NC(C)=O)cn2)cc1 (configuration not stated) ?
no

growth inhibition >= 90% for COc1cc(C2=N/C(=C\c3ccccc3O)C(=O)O2)cc(OC)c1OC ?
no

growth inhibition >= 90% for O=C1C2=C(Nc3cc([N+](=O)[O-])ccc3N2)OC1c1c2ccccc2cc2ccccc12 (configuration not stated) ?
yes

====

- experimentalDetails: NCI Yeast Anticancer Drug Screen. Data for the bub3 strain (AID 167)
- statedConditions: S. cerevisiae bub3 mutant strain, at 50.0 µM, active compounds read high
Compounds without any hit were thinned out: in the full panel of roughly 79,000, 15% have a hit.
Readings of growth inhibition for the listed compounds
State the answer as a number, implicitly in %.

Please review the entries below; each comes with its answer.
| compound | growth inhibition (%) |
| --- | --- |
| Cc1cc(Br)c(N2C3=C(CC4=C2CCCC4=O)C(=O)CCC3)c(Br)c1 | 98.2 |
| C/C(=N\NC(=S)N1CCN(Cc2ccccc2)CC1)c1ccccn1 | 11.7 |
| CN1c2ccccc2C(C)(C)C12C=Cc1cc(O)ccc1O2 (stereo unspecified) | 52.4 |
| Nc1ccc(S(=O)(=O)O)c2cccc(S(=O)(=O)O)c12 | 27.2 |
| CCCN=Cc1cnc(C#N)c(N)n1 | 17.3 |

Could you now look at the following compound, please?
Recorded growth inhibition for COc1cc(C2SC(N)=Nc3c2c(C)nn3C(=O)c2ccccc2O)cc(OC)c1OC (stereo unspecified) , please?
79.1

====

- experimentalDetails: NCI Yeast Anticancer Drug Screen. Data for the bub3 strain (AID 167)
- statedConditions: S. cerevisiae bub3 mutant strain, at 5.0 µM (retest, dose inferred, filed as 0.5)
- Experimental: Growth inhibition of yeast strains with defined genetic alterations is measured as a screen for potential anti-cancer activity. Selected strains with alterations in DNA damage repair or cell cycle control were exposed to compounds and growth inhibition was measured relative to vehicle treated controls. The strain used in this assay is bub3
The panel holds about 79,000 compounds, 15% with a hit somewhere; the sample as a whole holds those more often. Active and inactive are the calls of the source. Cut-off read from the data, not from the text of the source: active = growth inhibition above about 70%; inactive = the rest.
// allowed return values: YES for active, NO for inactive

A selection of reference data follows.
| compound | assignedLabel |
| --- | --- |
| Clc1ccc(N=Cc2c3ccccc3cc3ccccc23)c(Cl)c1 | NO |
| CCCCN(C)C(=S)N/N=C(\C)c1ccccn1 | YES |
| O=C1NC(c2cccc3ccccc23)Nc2ccc(Cl)cc21 (configuration not stated) | NO |
| Cc1cc(N2C(=O)CSC2=S)ccc1Cl | NO |
| O=C(/C=C/c1ccccc1)C1(c2ccccc2)CC1 | NO |
| N=C(N)c1ccc2oc3ccc(C(=N)N)cc3c(=O)c2c1 | NO |

API: the following record is the query input.
Field: outcome | Entry: O=C(Nc1ccccc1)c1cc(Cl)ccc1O
NO

====

- experimentalDetails: NCI Yeast Anticancer Drug Screen. Data for the rad50 strain (AID 155);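 further: 0% = growth of vehicle-only cultures of the same strain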
- statedConditions: S. cerevisiae rad50 strain growth inhibition; at 50.0 µM; active compounds read high
This is part of a sample that, as a whole, favours compounds with a hit. Of some 79,000 tested, about 15% had one in any assay.
# growth inhibition >= 50% gives Criterion met, anything below gives Criterion not met

A selection of reference data follows.
| compound | assignedLabel |
| --- | --- |
| CC(C)OC(=O)c1ccc(NCC2=CC(=O)C=CC2=O)cc1Cl | Criterion met |
| COc1ccc(C2=C(Cl)C(=O)N(c3ccc(OC)cc3OC)C(=O)C2(Cl)Cl)cc1 | Criterion met |
| Cc1ccc(N=C(N)NN=C(c2ccc(Cl)cc2)c2ccc(Cl)cc2)cc1 | Criterion met |
| CC#CS(=O)(=O)c1ccccc1 | Criterion met |
| OCc1cccc2c1Oc1ccccc1S2 | Criterion met |
| CCOC(=O)c1c(I)[nH]c(I)c1C | Criterion not met |
| Cc1c2cc[n+](C)cc2c(C)c2c1sc1ccccc12 | Criterion not met |
| COC/C=N/Nc1ccc([N+](=O)[O-])cc1 | Criterion met |

growth inhibition >= 50% for Nc1nc(N)c2cc(S(=O)c3ccc4ccccc4c3)ccc2n1 (stereo unspecified) ?
Criterion not met

growth inhibition >= 50% for CC(=O)OCC1(O)OCC(OC(C)=O)C(OC(C)=O)C1OC(C)=O (stereo unspecified) ?
Criterion not met

growth inhibition >= 50% for O=C(CSC1=NNC2(C(=O)N1)c1ccccc1-c1ccccc12)NC(=S)Nc1ccccc1 ?
Criterion met

====

- experimentalDetails: NCI Yeast Anticancer Drug Screen. Data for the mlh1 rad18 strain (AID 175)
- statedConditions: S. cerevisiae mlh1 rad18 strain growth inhibition; at 50.0 µM (retest, dose inferred, filed as 5.0)
This is part of a sample that, as a whole, favours compounds with a hit. Of some 79,000 tested, about 15% had one in any assay. Calls of active or inactive are those of the source. Cut-off read from the data, not from the text of the source: active = growth inhibition above about 70%; inactive = the rest.
// allowed return values: active, inactive

| compound | assignedLabel |
| --- | --- |
| S=C(N/N=C(/c1ccccc1)c1ccccn1)Nc1cccc(Cl)c1 | active |

API: the following record is the query input.
Field: outcome | Entry: N#Cc1snc2sc(=O)sc12
active

====

- experimentalDetails: NCI Yeast Anticancer Drug Screen. Data for the mlh1 rad18 strain (AID 175)
- statedConditions: S. cerevisiae mlh1 rad18 strain growth inhibition; at 50.0 µM
Compounds without any hit were thinned out: in the full panel of roughly 79,000, 15% have a hit. The source made the active and inactive calls. Rule as the data show it: active = growth inhibition above about 70%; inactive = the rest. Where a SMILES comes first, the peptide text is derived from it. The star is where a group is joined. Boc = CC(C)(C)OC(=O)*; OBn = c1ccc(CO*)cc1; Bn = c1ccc(C*)cc1
// allowed return values: yes (active), no (inactive)

A selection of reference data follows.
| molecule | assignedLabel |
| --- | --- |
| CN(C)C1CCC(N=Nc2cc([N+](=O)[O-])ccc2C(=O)O)CC1 (stereo unspecified) | yes |
| COc1ccc(C(=O)CC2(O)C(=O)N(C)c3c(Cl)cc(Cl)cc32)cc1 (stereo unspecified) | yes |
| CC(C)CC(NC(=O)C(Cc1ccccc1)NC(=O)C(COCc1ccccc1)NC(=O)OC(C)(C)C)C(=O)OCc1ccccc1 (stereo not drawn) (Boc-Ser(Bn)-Phe-Leu-OBn; configuration not given here) | no |

Field: outcome | Entry: Cc1c(NC(=O)C(=O)N=NC(=O)c2ccncc2)c(O)c2ccccc2c1O
yes

====

- experimentalDetails: NCI Yeast Anticancer Drug Screen. Data for the sgs1 mgt1 strain (AID 161);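 further: 0% = growth of cultures given vehicle only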
- statedConditions: S. cerevisiae sgs1 mgt1 strain, at 50.0 µM
- Protocol: Growth inhibition of yeast strains with defined genetic alterations is measured as a screen for potential anti-cancer activity. Selected strains with alterations in DNA damage repair or cell cycle control were exposed to compounds and growth inhibition was measured relative to vehicle treated controls. The strain used in this assay is sgs1 mgt1
About 79,000 compounds went through this panel and 15% of them were active in at least one assay; those are over-represented in the sample as a whole. The source made the active and inactive calls. Cut-off read from the data, not from the text of the source: active = growth inhibition above about 70%; inactive = the rest.
// allowed return values: Y (active), N (inactive)

| compound | assignedLabel |
| --- | --- |
| CC(=O)O/C=C\COC(C)=O | N |

Field: outcome | Entry: COC(=O)[C@@H]1c2cc3c(c(O)c2[C@@H](OC2OC(C)C(OC)C(C)(OC)C2OC)C[C@]1(C)O)C(=O)c1c(O)cc2c(c1C3=O)O[C@H]1O[C@]2(C)[C@H](O)[C@@H](N(C)C)[C@@H]1O (stereo not given in full)
Y
